- MEASURED_ON: T1, human GFRα3 expressed with a C-terminal myc-myc-hexahistidine tag (human, UniProt O60609 32-374, biotinylated (sites not given) in ELISA format 2 and in the Octet cross-competition; not in SPR)
- T1 construct: also called hGFRα3-mmh; hGFRα3-mmH
- TEST_PROTOCOL: SPR, Ab captured, 25C
# reported Kd; entries follow
REPORTED_ENDPOINT: Kd (nM)

| BINDER | REPORTED_ENDPOINT | UNIT_TEXT | RESULT_VALUE |
| --- | --- | --- | --- |
| H4H2294S (antibody, human IgG4, V domains shown, human IgG4 Fc (H4H)) VH: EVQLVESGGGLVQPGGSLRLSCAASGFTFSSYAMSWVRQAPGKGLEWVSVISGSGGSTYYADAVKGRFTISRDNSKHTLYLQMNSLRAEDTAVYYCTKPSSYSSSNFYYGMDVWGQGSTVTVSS VL: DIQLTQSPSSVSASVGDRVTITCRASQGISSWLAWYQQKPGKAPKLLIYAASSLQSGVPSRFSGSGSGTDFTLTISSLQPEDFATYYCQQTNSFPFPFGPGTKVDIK | Kd | nM | 0.142 |
| H4H2345S (antibody, human IgG4, V domains shown, human IgG4 Fc (H4H)) VH: EVQLVESGGGLVRPGRSLRLSCAASGFTFDNYAMHWVRQVPGKGLEWVSGITWNSVSLGYADSVKGRFTISRDNAQNSLYLQMNSLRTVDTALYYCAKDRWGGSYYFDFWGQGTLVTVSS VL: DIVMTQSPSSLSASVGDRVTITCRASQGISNYLAWYQQKPGKVPKLLIYSASTLQSGVPSRFSGSGSGTDFTLTISNLQPEDFATFFCQKYNSAPTFGGGTKVEIK | Kd | nM | 29.7 |
| H4H2236N3 (antibody, human IgG4, V domains shown, human IgG4 Fc (H4H)) VH: EVQLLESGGNLVQPGGSLRLSCAASGFTFSSYAMTWVRQAPGKGLEWVSTISGSGTSTYYADSVKGRFTISRDNSRDTVFLQMNSLRAEDTAVYYCSKPSALRFLHWLAMDVWGQGTLVTVSS VL: DIQMTQSPSSLSAFVGDRVTITCRASQDIRNYLDWFQQKPGKAPKSLIYAASNLQSGVPSRFGGSGSGTDFTLTINSLQPEDFVTYYCQQYNSYPPTFGGGTKVEIK | Kd | nM | 0.253 |
| H4H2291S (antibody, human IgG4, V domains shown, human IgG4 Fc (H4H)) VH: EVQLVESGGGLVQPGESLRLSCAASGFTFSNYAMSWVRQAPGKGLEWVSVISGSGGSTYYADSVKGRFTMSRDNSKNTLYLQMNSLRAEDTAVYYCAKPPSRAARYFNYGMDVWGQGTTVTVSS VL: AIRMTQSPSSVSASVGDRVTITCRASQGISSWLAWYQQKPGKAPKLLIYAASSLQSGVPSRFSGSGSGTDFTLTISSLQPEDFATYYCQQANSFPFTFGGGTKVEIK | Kd | nM | 0.393 |
| H4H2346S (antibody, human IgG4, V domains shown, human IgG4 Fc (H4H)) VH: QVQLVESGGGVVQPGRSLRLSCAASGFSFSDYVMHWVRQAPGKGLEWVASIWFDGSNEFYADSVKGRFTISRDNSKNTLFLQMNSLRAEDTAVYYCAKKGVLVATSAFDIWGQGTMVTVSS VL: EIVMTQSPSSLSASVGDRVTITCRASQSINNYLNWYHQKPGKAPKLLIYAASSLQSGVPSRFSGSGSGTDYTLTISSLQPEDFGNYYCQQSYRTSMYTFGQGTKVEIK | Kd | nM | 0.43 |
